# assay.method.text: Tmax in rat at 1 mg/kg, iv and 1 mg/kg, po
# Type: ADME, organism-based
# experimental.parameters: in vivo
measure: Tmax

Asked: State its Tmax: `COCC[C@H](CC1(C(=O)NC2(CO)Cc3ccccc3C2)CCCC1)C(=O)O`
Given back: < 1 h

* * *

# assay.method.text: Permeability from basolateral to apical side of the Caco-2 cell membrane at pH 7.4
# Format: ADME, cell-based
# experimental.parameters: human, Caco-2, pH 7.4
measure: Papp B→A (×10⁻⁶ cm/s)

a. COCC[C@H](CC1(C(=O)NC2(CO)Cc3ccccc3C2)CCCC1)C(=O)O
b. COCC[C@H](CC1(C(=O)NCCCc2ccc(Cl)cc2)CCCC1)C(=O)O
Asked: Hello, I am sorting some records. Could you say if a or b has the smaller Papp B→A value? Give the chosen item's label as your response.
Given back: a
